biological target: JAK3 (Homo sapiens); construct: purchased Thermo fisher PV3855; assay: JAK3 biochemical assay (ADP-GLO Kinase Assay); conditions: B*: testing performed in a first testing facility; read-out: JAK3 IC50 (nM) Relative, B*
OBSERVABLE: IC50

CC(C)c1c[nH]c2ncc(-c3ccc(N)c(P(C)(C)=O)c3)cc12 [Example 77]
> 1000 nM
COc1nc2c(cc1Nc1ncc(Cl)c(N3CCc4ccccc43)n1)CN(C)CC2 [Example 19]
500 to 1000 nM
COc1cc2c(cc1Nc1ncc(Cl)c(-n3cc(CC(=O)O)c4cc(F)c(F)cc43)n1)CN(C)CC2 [Example 140]
500 to 1000 nM

Problem: Consider the compound COc1cc2c(cc1Nc1ncc(Cl)c(N3CC(CO)c4ccccc43)n1)CN(C)CC2 (centres unmarked) [Example 87] and give its measured IC50.
Result: 100 to 500 nM

Problem: I would be grateful if you could share the reported IC50 for COc1cc2c(cc1Nc1ncc3ccn(-c4ccccc4P(C)(C)=O)c3n1)CN(C)CC2 [Example 39] .
Result: > 1000 nM

Problem: Give the measured IC50 of COc1cc2c(cc1Nc1ncc(Cl)c(N3CC(C)(C#N)c4ccccc43)n1)CN(C)CC2 (centres unmarked) [Example 121] .
Result: ≤ 100 nM

Problem: # query: IC50 of entry COc1cc2c(cc1Nc1ncc(Cl)c(-n3cc(S(C)(=O)=O)c4ccccc43)n1)CN(C)CC2 [Example 80]
Result: > 1000 nM

Problem: Recorded IC50 of CCc1c[nH]c2ncc(-c3ccc(N4CCCC4=O)c(P(C)(C)=O)c3)cc12 [Example 66] , please.
Result: > 1000 nM

###

biological target: JAK3 (Homo sapiens, UniProt P52333); construct: purchased Thermo fisher PV3855; assay: JAK3 biochemical assay (ADP-GLO Kinase Assay); settings: ratio of JAK3 IC50 to HPK1 IC50; first testing facility
Sequence (P52333 781-1124 limits assumed): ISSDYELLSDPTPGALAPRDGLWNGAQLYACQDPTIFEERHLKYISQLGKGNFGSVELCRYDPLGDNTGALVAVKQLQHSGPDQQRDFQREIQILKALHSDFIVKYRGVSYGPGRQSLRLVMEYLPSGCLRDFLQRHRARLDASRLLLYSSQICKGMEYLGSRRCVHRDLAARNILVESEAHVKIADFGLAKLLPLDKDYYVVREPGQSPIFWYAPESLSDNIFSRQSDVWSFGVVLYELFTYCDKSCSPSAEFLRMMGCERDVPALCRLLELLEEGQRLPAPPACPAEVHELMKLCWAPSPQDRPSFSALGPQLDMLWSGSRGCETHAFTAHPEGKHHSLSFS
OBSERVABLE: JAKs/HPK1 IC50 Ratio, B*

[I] CN1CCc2ccc(Nc3ncc(Cl)c(N4CCc5ccccc54)n3)cc2C1 [Example 14]
[II] COc1cc2c(cc1Nc1ncc(Cl)c(N3CC(C)(CC(=O)O)c4ccccc43)n1)CN(C)CC2 (stereo not shown) [Example 146]
[III] COc1cc2c(cc1Nc1ncc(Cl)c(N3CC(C(=O)O)c4ccc(F)cc43)n1)CN(C)CC2 (stereo not shown) [Example 105]
[IV] COc1cc2c(cc1Nc1ncc(Cl)c(N3CCc4ccc(F)cc43)n1)CN(C)CC2 [Example 21]
Problem: Arrange the 4 molecules by rising JAKs/HPK1 IC50 Ratio, B*, starting with the smallest. Answer by listing the labels in the requested order.
Result: I, II, III, IV

###

tested on: Human Pan T Cell (IL-2 release); test: IL2 released by human pan T cell upon anti-CD3/anti-CD28 stimulation (ELISA); type: cell-based; settings: Homo sapiens, T-cell, IL-2 response, human pan T cells, calculated with GraphPad Prism
Catalogue of molecules with associated EC50

COc1cc2c(cc1Nc1ncc(Cl)c(N3CC(C(=O)O)c4ccc(F)cc43)n1)CN(C)CC2 (centres unmarked)
≤ 100 nM
COc1cc2c(cc1Nc1ncc(Cl)c(N3CC(C(=O)O)c4cc(F)ccc43)n1)CN(C)CC2 (centres unmarked)
100 to 500 nM
COc1cc2c(cc1Nc1ncc(Cl)c(N3CC(C)(CC(=O)O)c4ccccc43)n1)CN(C)CC2 (centres unmarked)
≤ 100 nM
COc1cc2c(cc1Nc1ncc(Cl)c(-n3cc(CC(=O)NCC#N)c4ccccc43)n1)CN(C)CC2
500 to 1000 nM
COc1cc2c(cc1Nc1ncc(Cl)c(-n3cc(CC(=O)O)c4ccc(F)cc43)n1)CN(C)CC2
≤ 100 nM

Problem: Which EC50 reading was recorded for the molecule COc1cc2c(cc1Nc1ncc(Cl)c(N3CC(P(C)(C)=O)c4ccccc43)n1)CN(C)CC2 (centres unmarked) ?
Result: 500 to 1000 nM

Problem: Entry COc1cc2c(cc1Nc1ncc(Cl)c(N3CCc4ncccc43)n1)CN(C)CC2 : reported EC50 = ?
Result: 100 to 500 nM

Problem: Reported EC50 for COc1cc2c(cc1Nc1ncc(Cl)c(-n3cc(CC(=O)O)c4cc(F)ccc43)n1)CN(C)CC2 : what is it?
Result: 100 to 500 nM

###

molecular target: JAK3 (Homo sapiens); construct: purchased Thermo fisher PV3855; assay: JAK3 biochemical assay (ADP-GLO Kinase Assay); conditions: B*: testing performed in a first testing facility; read-out: JAK3 IC50 (nM) Relative, B*
OBSERVABLE: IC50

# example entries with known answers
CCc1c[nH]c2ncc(-c3ccc(C)c(P(C)(C)=O)n3)cc12
> 1000 nM
CCc1c[nH]c2ncc(-c3ccc(CN(C)C)c(P(C)(C)=O)c3)cc12
> 1000 nM
COc1cc2c(cc1Nc1ncc(Cl)c(N3CCCc4ccccc43)n1)CN(C)CC2
> 1000 nM

Problem: Please tell me: IC50 of COc1cc2c(cc1Nc1ncc(Cl)c(N3CC4(CC4)c4ccccc43)n1)CN(C)CC2 , system JAK3 (Homo sapiens)?
Result: 100 to 500 nM

Problem: API: value(readout=IC50, system=JAK3 (Homo sapiens)) for record COc1cc2c(cc1Nc1ncc(C(F)(F)F)c(-n3ccc4ccccc43)n1)CN(C)CC2
Result: > 1000 nM

Problem: Missing value: IC50, JAK3 (Homo sapiens), entry COc1cc2c(cc1Nc1ncc(Cl)c(N3CCc4ccccc43)n1)CNCC2 . Fill in?
Result: 100 to 500 nM

Problem: Write down the reported IC50 of COc1cc2c(cc1Nc1ncc(Cl)c(N3CC(C)(C)c4ccccc43)n1)CN(C)CC2 , test system: JAK3 (Homo sapiens).
Result: 100 to 500 nM

Problem: So what IC50 did COc1cc2c(cc1Nc1ncc(Cl)c(N3CCc4c(OC)cccc43)n1)CN(C)CC2 get with JAK3 (Homo sapiens)?
Result: > 1000 nM

###

target: JAK3 (Homo sapiens, UniProt P52333); construct: purchased Thermo fisher PV3855; test: JAK3 biochemical assay (ADP-GLO Kinase Assay); details: B*: testing performed in a first testing facility; read-out: JAK3 IC50 (nM) Relative, B*
# key: entry, value: IC50

Some compounds with known IC50 results, for comparison:
COc1cc2c(cc1Nc1ncc(Cl)c(N3CC(C(=O)NS(C)(=O)=O)c4ccccc43)n1)CN(C)CC2 (stereo not shown)
> 1000 nM
CCc1c[nH]c2ncc(-c3ccc(O)c(P(C)(C)=O)c3)cc12
100 to 500 nM
CC(C)Oc1cc2c(cc1Nc1ncc(Cl)c(N3CC(C(=O)O)c4ccccc43)n1)CN(C)CC2 (stereo not shown)
> 1000 nM

Problem: Record COc1cc2c(cc1Nc1ncc(Cl)c(-n3cc(P(C)(C)=O)c4ccccc43)n1)CN(C)CC2 : what is its IC50 with JAK3 (Homo sapiens, UniProt P52333)?
Result: > 1000 nM

###

system: Human Pan T Cell (IL-2 release); experiment: IL2 released by human pan T cell upon anti-CD3/anti-CD28 stimulation (ELISA); assay type: cell-based; details: Homo sapiens, T-cell, IL-2 response, human pan T cells, calculated with GraphPad Prism
pEC50: −log10 of the molar value.
Below, each entry is listed alongside its reported pEC50.

Illustrative cases are given below, each with its answer.
COc1cc2c(cc1Nc1ncc(Cl)c(N3CC4(CC4)c4ccccc43)n1)CN(C)CC2
6.00 to 6.30
COc1cc2c(cc1Nc1ncc(Cl)c(N3CCc4ccccc43)n1)CN(C)CC2
6.30 to 7.00
COc1cc2c(cc1Nc1ncc(Cl)c(N3CC(C(=O)O)c4c(OC)cccc43)n1)CN(C)CC2 (stereo not shown)
< 6.00

We next turn to a different molecule, shown below.
Problem: Which measured pEC50 value corresponds to COc1cc2c(cc1Nc1ncc(Cl)c(N3CC(C)(CC(=O)O)c4ccccc43)n1)CNCC2 (stereo not shown) ?
Result: ≥ 7.00

###

tested on: Human Pan T Cell (IL-2 release); experiment: IL2 released by human pan T cell upon anti-CD3/anti-CD28 stimulation (ELISA); assay type: cell-based; conditions: Homo sapiens, T-cell, IL-2 response, human pan T cells, calculated with GraphPad Prism
pEC50: −log10 of the molar value.
Below is a list of entries, each paired with its recorded pEC50 value.

// solved cases for pEC50 follow
COc1cc2c(cc1Nc1ncc(Cl)c(-n3cc(CC(N)=O)c4ccccc43)n1)CN(C)CC2
< 6.00
COc1cc2c(cc1Nc1ncc(Cl)c(N3CC(CO)c4ccccc43)n1)CN(C)CC2 (centres unmarked)
6.30 to 7.00
COC(=O)C1(C)CN(c2nc(Nc3cc4c(cc3OC)CCN(C)C4)ncc2Cl)c2ccccc21 (centres unmarked)
6.00 to 6.30
COc1cc2c(cc1Nc1ncc(Cl)c(N3CCc4cc(P(C)(C)=O)ccc43)n1)CN(C)CC2
6.30 to 7.00
COc1cc2c(cc1Nc1ncc(Cl)c(N3CC(C)(CC(=O)O)c4ccc(F)cc43)n1)CN(C)CC2 (centres unmarked) [Example 151]
≥ 7.00
COc1cc2c(cc1Nc1ncc(Cl)c(-n3nc(CC(=O)O)c4ccccc43)n1)CN(C)CC2
< 6.00

Problem: What value of measured pEC50 is listed for CCN1CCc2cc(OC)c(Nc3ncc(Cl)c(N4CC(C)(CC(=O)O)c5ccccc54)n3)cc2C1 (centres unmarked) ?
Result: ≥ 7.00

Problem: # pEC50 lookup, item COc1cc2c(cc1Nc1ncc(Cl)c(-n3ncc4ccccc43)n1)CN(C)CC2
Result: 6.00 to 6.30
